Recorded values, source the NTF2 design screens of Basanta et al. (2020).

// reported protease stability score per item
- method_notes: protease stability score; higher = more stable; yeast display proteolysis, trypsin and chymotrypsin;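 further: relative to predicted unfolded state with 0 unfolded-like and 1 meaning tenfold more protease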
Keep it simple and answer with nothing but the number.

[in] Fill blank: measured protease stability score of the sequence DEIRKMVEESFEIILHSILTGDEHIEEFLADPHVRILINGVTFHGREEFHKLIEHYLKHWRIKDSKVDHVHAQGEKIEMRVTIHGTVDGQEQTREVIIIAKKVDGRWSMKHVEVR is ____.
[out] 2.08

[in] Likewise for DEEQTQMEETVNVVLSAMRTGDEETSKKLADPNVKIRINGREFHGRDFYAHVILMFGIDHIEMRIERYEFQGEKLILRGRLRLEFNGKEETSDVIEIWWKVDGRWHLDNYYEN ?
[out] 1.37

[in] Likewise for DEEEEDIRRAVTRFIEVILTGDEHSLERLMDPHVKIDIGDKHLHGREAKDRLRDEMRRKFKNLRIHMRDWHLEIYDGVAHSTFDFELEINGKRTHLELRVDVRKVDGRWLIDSYEIKIR ?
[out] 1.15

[in] Likewise for DEDREMVEEVIRERLEDLKTGDWKKLADLADPHVRLDVGDKEYHGREEFTKTFTDILRILGHSNIQTDLKHIDFFDGRLDVHQTVHIGDKTIHHQILFHKFDGKWKITEMRITIR ?
[out] 0.928

[in] Likewise for SEDEELAKEFAETMLHWEITGNEEAIRRNMDPNTKLDINGQHYIGRDDVLRVWHEIKKRLGVDHLEIHHIRVSVIGDKIRIEIDGHIRVNGREIETHIVIITEKINGKWIIRSMRYEFK ?
[out] 1.24

###

- method_notes: protease stability score; higher = more stable; yeast display proteolysis, trypsin and chymotrypsin;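 further: relative to predicted unfolded state with 0 unfolded-like and 1 meaning tenfold more protease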
endpoint_label: protease stability score
Keep it simple and answer with nothing but the number.

Below, each entry is followed by its recorded protease stability score result.
> print(dat)
                            sequence.string            endpoint.label  assay.result
1  REDEELVKQVVKDFDHAVETGDEDRLRELLDPDVRISQGDKEFHGREDYELHLRQWRYENHRVHDVRIYGDKARIHGHLHLKIGDKHLEVETILILHKVNGRWRVRHLEIR  protease stability score          1.83
2  DHEEEEEHFLLEHMIEAIVTGDEDRLKELVDPHVRMDIDGVIIHGMDDIARWLKELRSIIRHFIPRDRKWQGNKIHIEGEVHGELRFDGRNQTDTFRIEIVSHKINGRWVIRSESFR  protease stability score          1.18
3  DELTELAEKAKELFVRIEKTGDEKTWSEYADPDVRIHVNGVDLHGREESLKWMHDLRERIKNMRVEFKDFKIEIIGNKVIIFIDGRLRYDGRELELESVYYVSKFNGRWRVESEELRIR  protease stability score          1.37
4  TEDDEHLEEEAEEYKEYVRTGDWKKIFELADPHTKIDIGNYKRHGMEDFLRDVIHVYTKLGVTIEHHVHDVRVINGRAHVNMEVRVHYGEKDERIKTTLIMRKVDGRWKLTSIHFK  protease stability score          1.15

Alright, here's another sequence for you.
[in] Fill blank: measured protease stability score of the sequence SEEHQTAEKMLRILLHLFLTGDEDKFEHLLDPHVRLHVGDKEIHGRELASKKLHEMVRHLRVRDVHVDTLDIQGNKMHFDTRIDVEQGDKTYILRFHWYNEKVDGRWRIHLVHYD is ____.
[out] 1.68
